Measured neutralization IC50 values are reported for all entries that follow.
Measurement Target: HIV-1 Env of strain Du172.17 (HIV-1)
Protocol: cell-based or functional assay

{"columns": ["Binder", "neutralization IC50"],
 "data": [
  ["NIH45-46 G54M IgG (antibody, name in Kabat numbering, V domains shown) VH: QVRLSQSGGQMKKPGESMRLSCRASGYEFLNCPINWIRLAPGRRPEWMGWLKPRMGAVNYARKFQGRVTMTRDVYSDTAFLELRSLTSDDTAVYFCTRGKYCTARDYYNWDFEHWGRGAPVTVSS VL: EIVLTQSPATLSLSPGETAIISCRTSQSGSLAWYQQRPGQAPRLVIYSGSTRAAGIPDRFSGSRWGADYNLSISNLESGDFGVYYCQQYEFFGQGTKVQVDI", "> 50 µg/mL"],
  ["NIH45-46 G54I IgG (antibody, name in Kabat numbering, V domains shown) VH: QVRLSQSGGQMKKPGESMRLSCRASGYEFLNCPINWIRLAPGRRPEWMGWLKPRIGAVNYARKFQGRVTMTRDVYSDTAFLELRSLTSDDTAVYFCTRGKYCTARDYYNWDFEHWGRGAPVTVSS VL: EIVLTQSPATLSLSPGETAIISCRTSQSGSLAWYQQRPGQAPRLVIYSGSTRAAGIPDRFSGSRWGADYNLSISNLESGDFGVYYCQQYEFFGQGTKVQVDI", "> 50 µg/mL"],
  ["NIH45-46 G54H IgG (antibody, name in Kabat numbering, V domains shown) VH: QVRLSQSGGQMKKPGESMRLSCRASGYEFLNCPINWIRLAPGRRPEWMGWLKPRHGAVNYARKFQGRVTMTRDVYSDTAFLELRSLTSDDTAVYFCTRGKYCTARDYYNWDFEHWGRGAPVTVSS VL: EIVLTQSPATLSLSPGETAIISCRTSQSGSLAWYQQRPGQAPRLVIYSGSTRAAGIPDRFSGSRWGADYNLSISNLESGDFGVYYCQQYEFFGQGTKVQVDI", "> 50 µg/mL"],
  ["NIH45-46^G54F IgG (antibody, name in Kabat numbering, V domains shown) VH: QVRLSQSGGQMKKPGESMRLSCRASGYEFLNCPINWIRLAPGRRPEWMGWLKPRFGAVNYARKFQGRVTMTRDVYSDTAFLELRSLTSDDTAVYFCTRGKYCTARDYYNWDFEHWGRGAPVTVSS VL: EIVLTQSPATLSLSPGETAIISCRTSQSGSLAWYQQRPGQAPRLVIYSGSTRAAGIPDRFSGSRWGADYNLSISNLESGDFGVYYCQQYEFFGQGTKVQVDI", "16 µg/mL"],
  ["NIH45-46 G54L IgG (antibody, name in Kabat numbering, V domains shown) VH: QVRLSQSGGQMKKPGESMRLSCRASGYEFLNCPINWIRLAPGRRPEWMGWLKPRLGAVNYARKFQGRVTMTRDVYSDTAFLELRSLTSDDTAVYFCTRGKYCTARDYYNWDFEHWGRGAPVTVSS VL: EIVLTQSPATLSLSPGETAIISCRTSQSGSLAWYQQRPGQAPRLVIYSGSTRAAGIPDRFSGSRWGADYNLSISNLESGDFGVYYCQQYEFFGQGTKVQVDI", "> 50 µg/mL"],
  ["NIH45-46^G54W IgG (antibody, name in Kabat numbering, V domains shown) VH: QVRLSQSGGQMKKPGESMRLSCRASGYEFLNCPINWIRLAPGRRPEWMGWLKPRWGAVNYARKFQGRVTMTRDVYSDTAFLELRSLTSDDTAVYFCTRGKYCTARDYYNWDFEHWGRGAPVTVSS VL: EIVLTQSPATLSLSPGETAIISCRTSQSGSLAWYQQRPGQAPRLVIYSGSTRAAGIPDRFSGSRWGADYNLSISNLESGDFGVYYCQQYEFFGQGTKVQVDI", "0.9 µg/mL"]
]}
